Cited source for all entries: ChEMBL document CHEMBL3994644

# PROCEDURE TEXT: Elimination half life in Sprague-Dawley rat at 1 mg/kg, iv
# Format: ADME, organism-based
# CONDITION LABEL: in vivo, read-out: beta t1/2 (converted)
MEASUREMENT KIND: half-life (h)

• C[C@H](NC(=O)c1cc(Cl)cnc1Oc1cccc(F)c1)c1ccc(C(=O)O)cc1 = 4.59

---

# PROCEDURE TEXT: Efflux ratio of apparent permeability in human Caco2 cells
# Assay type: ADME, cell-based
# CONDITION LABEL: Caco-2
MEASUREMENT KIND: efflux ratio

- C[C@H](NC(=O)c1cc(Cl)cnc1Oc1cccc(C#N)c1)c1ccc(C(=O)O)cc1: 40
